# Lookup of reported growth inhibition keyed by entry
Assay: NCI Yeast Anticancer Drug Screen. Data for the bub3 strain (AID 167)
Conditions: S. cerevisiae bub3 mutant strain, at 50.0 µM, hits give high values
The panel holds about 79,000 compounds, 15% with a hit somewhere; the sample as a whole holds those more often.
Quantity Measured: growth inhibition (%)

                                    compound  quantity_measured  output_unit  endpoint_result
 0  O=C1c2ccccc2C(=O)N1/N=C1/SC(=Nc2ccccc2)C(=Nc2ccccc2)N1c1ccccc1  growth inhibition            %             14.8
 1       Cc1nn(C)c(=O)c2nn(-c3ccccc3)c(C)c12  growth inhibition            %             20.8
 2  COc1cc2c(c(OC)c1OC)-c1cccc(=O)cc1C(NC(C)=O)CC2 (stereo unspecified)  growth inhibition            %             -2.2
 3  Cc1ccc(S(=O)(=O)C(C#N)(Cc2c[nH]c3ccccc23)Cc2c[nH]c3ccccc23)cc1  growth inhibition            %             11.8
 4                      COc1ccc(/C=N/CCl)cc1  growth inhibition            %            -22.1
 5                 C=CCS(=O)(=O)c1ccc(Cl)cc1  growth inhibition            %             0.95
 6          Nc1ccc2c(c1)Cc1c-2cc(Br)c(N)c1Br  growth inhibition            %              1.9
 7                    NC(=O)COc1ncc(Cl)cc1Cl  growth inhibition            %              4.4
 8  NC(=O)CCN(CCC(N)=O)c1ccc2c(c1)C(=O)c1ccccc1-2  growth inhibition            %             15.5
 9  CCc1ccccc1NC(=O)C1=C(C)NC(C)=C(C(=O)Nc2ccccc2CC)C1c1cccc([N+](=O)[O-])c1  growth inhibition            %             36.5
10                           O=C(O)CN1CCCCC1  growth inhibition            %             -4.1
